Hey, just so you know, these numbers are from paper PMC6094102.

Protein target, amino acids: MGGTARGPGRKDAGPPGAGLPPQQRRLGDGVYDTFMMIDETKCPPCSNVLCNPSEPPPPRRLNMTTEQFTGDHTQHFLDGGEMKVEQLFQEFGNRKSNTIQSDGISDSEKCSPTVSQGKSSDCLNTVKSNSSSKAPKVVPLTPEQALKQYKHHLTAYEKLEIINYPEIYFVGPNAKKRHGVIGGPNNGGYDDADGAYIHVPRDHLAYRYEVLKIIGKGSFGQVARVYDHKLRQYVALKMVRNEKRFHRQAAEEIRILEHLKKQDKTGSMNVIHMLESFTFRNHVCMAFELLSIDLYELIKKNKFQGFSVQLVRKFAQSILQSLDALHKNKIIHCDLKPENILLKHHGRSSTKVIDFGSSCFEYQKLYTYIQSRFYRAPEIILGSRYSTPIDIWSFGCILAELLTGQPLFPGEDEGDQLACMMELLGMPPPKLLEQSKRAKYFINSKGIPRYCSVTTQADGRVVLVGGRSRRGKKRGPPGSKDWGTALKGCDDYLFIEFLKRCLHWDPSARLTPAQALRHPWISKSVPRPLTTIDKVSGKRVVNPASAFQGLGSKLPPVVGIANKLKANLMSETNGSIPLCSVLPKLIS
observation-type: pIC50
Schema: pIC50 number; meaning minus log10 of the concentration expressed in molar units.

Q) I am curious: what pIC50 value has been reported for COc1cc(/C=C/C(=O)CC(=O)/C=C/c2ccc(O)c(OC)c2)ccc1O ?
A) 7.70
